Test system: HOP-62 NSCLC
Assay: NCI-60 one-dose screen, 48 h (100 = growth as untreated, 0 = no growth, -100 = all killed)
Details: 10 µM unless noted
Experimental: Growth inhibition of the HOP-62 human Non-Small Cell Lung tumor cell line is measured as a screen for anti-cancer activity. Cells are grown in 96 well plates and exposed to the test compound for 48 hours. Compounds are tested at a single concentration, which is 10^-5 M for most compounds. The reported endpoint is percent growth (GI% or GIPRCNT), where numbers from 0 - 100% represent growth inhibition, and numbers from -100% - 0 represent cell death. […]
This is part of a sample that, as a whole, favours compounds with a hit. Of some 83,000 tested, about 20% had one in any assay.
Measurement Name: growth (%)
Give bare numbers, in %.

CC(=O)OC[C@@]1(C)C2CC[C@]3(C)C(CC=C4C5CC(C)(C)CC[C@]5(C(=O)Nc5ccc(Br)cc5)CC[C@]43C)[C@@]2(C)C[C@@H](OC(C)=O)[C@@H]1OC(C)=O (stereo partly drawn) = 38.5
Cc1cnc(C(=O)NNc2nc3cc(F)ccc3n3c(C(=O)N4CC5CC(C4)N5)ccc23)cn1 = 59.3
CN1CCN(c2ccc3c(c2)nc(NNC(=O)c2cnccn2)c2cccn23)CC1 = -24.4
Cc1sc(C(NC(=O)OCCn2c([N+](=O)[O-])cnc2C)C(F)(F)Cl)nc1-c1ccc(OC(F)(F)F)cc1 (stereo not drawn) = -89.7
O=C1/C(=C/C2=Cc3ccccc3OC2)SC(=S)N1c1ccccc1F = 101

Go through the items and report each one's growth.
1. C=C1CCC2C3(C)COC(c4ccccc4)OC3CCC2(C)C1CC(Sc1ccccc1)C1=CCOC1=O (stereo not drawn)
2. O=C(N/N=C/c1ccc(-c2ccc(O)cc2)s1)c1[nH]c2ccc(Br)cc2c1-c1ccccc1

Marked response:
1: 88.6; 2: 21.2

Please give growth for each item listed below.
1. NS(=O)(=O)c1ccc(-n2cc(-c3cccc(NC(=O)c4cc(N5CCOCC5)cc(C(F)(F)F)c4)c3)nn2)cc1
2. C=C1CC[C@@H]2[C@]3(C)COC(c4cn[nH]c4-c4ccccc4)O[C@@H]3CC[C@@]2(C)[C@@H]1C/C=C1/C(=O)OCC1O (stereo partly drawn)

Marked response:
1: 12.9; 2: 63.8

Could you report growth for every entry in the following list?
1. COc1ccc(C2=NN(C(C)=O)C(c3ccc(OCc4ccc(Cl)cc4)c(OC)c3)C2)cc1OC (stereo not drawn)
2. COc1ccccc1C(=O)NN1C(=O)/C(=C/C2=Cc3ccccc3OC2)SC1=S
3. COc1ccc(-c2ccnc(SCc3cc4cc(Cl)ccc4[nH]c3=O)n2)cc1
4. CSc1ccc(NC(=O)c2ccc3nn(/C(C#N)=C/c4ccccn4)nc3c2)cc1
5. CC(C)c1ccc2c(N)c(C(=O)Nc3ccc(C(F)(F)F)cn3)sc2n1
6. O=C(COc1ccc2c(c1)CCCC(=O)N2)NCc1ccccc1
7. C#CCOc1cc(N(CC)CC)ccc1C(C(=O)NC(C)(C)C)N(C(=O)C1CCc2cc(F)ccc2O1)c1ccc(F)c(Cl)c1 (stereo not drawn)

Marked response:
1: 76.2; 2: 106; 3: -17.3; 4: -70.3; 5: 57.7; 6: 92.5; 7: 77.5

Would you be so kind as to report growth for each listed record?
1. CC(=O)Oc1ccccc1C(=O)[Se]C(=NC1CCCCC1)NC1CCCCC1
2. CN(C)c1ccnc(CNCCSC2(c3ccccc3)c3ccccc3C=Cc3ccccc32)c1

Marked response:
[-87, 9.26]
